Overview of recorded growth for various compounds
Test system: PC-3 prostate
Assay: NCI-60 one-dose screen, 48 h (100 = growth as untreated, 0 = no growth, -100 = all killed)
Details: 10 µM unless noted
Compounds without any hit were thinned out: in the full panel of roughly 83,000, 20% have a hit.
Dear colleague, please return just the value in %, with no unit written.

Here is how some compounds turned out for growth.
Compound | Result Type | Result Number
O=C1C2=C(C(=O)c3c(O)ccc(O)c31)N(c1ccc(N3CCOCC3)nc1)Cc1ccccc1O2 | growth | 1.08
COC1=CC(c2ccc[nH]2)=N/C1=C\c1[nH]c(C)c(C(=O)CCCCCCCCC(=O)O[C@H]2CC[C@H]3C4CCc5cc(O)ccc5C4CC[C@]23C)c1C (some centres undefined) | growth | 23
COc1cc(NC(C)CCCN)c2ncccc2c1Oc1ccc(Cl)cc1 (centres undefined) | growth | 63.9
Cc1ccc(NC(=O)c2nc(S(C)=O)oc2-c2ccc(F)cc2)cc1Nc1nccc(-c2cccnc2)n1 (centres undefined) | growth | 72.9
CCN(CC)CCCCCCCNc1cc(OC)cc2c(C)ccnc12 | growth | 51.4

// query growth value for entry CCOCC(O)(c1ccc(Cl)cc1)c1ccc(Cl)cc1
88.8

Given the compound CCN(CC)c1ccc(C(=N)c2ccc(N(C)C)cc2)cc1 , what is its reported growth?
5.51

Suppose we examine the compound COc1cc(OC)cc(-c2n/c(=C\c3c(O)[nH]c4ccc(Cl)cc34)cc3c2=Nc2ccccc2-3)c1 ; what growth value has been reported?
69.3

// returns reported growth for input CC1(C)C(N(O)C(=O)Nc2ccc(Cl)cc2)N(c2ccc(Cl)cc2)C(=O)N1CC(=O)N/N=C/C=C/c1ccc([N+](=O)[O-])o1 (centres undefined)
8.77

---

Test system: SF-268 CNS
Experiment: NCI-60 one-dose screen, 48 h (100 = growth as untreated, 0 = no growth, -100 = all killed)
Details: 10 µM unless noted
About 83,000 compounds went through this panel and 20% of them were active in at least one assay; those are over-represented in the sample as a whole. The source made the active and inactive calls. How the source made its calls: active means growth percent below 10; inactive means the rest.
Result Type: growth

Known results for compounds:
Compound Structure String | growth
CCCCCCCCCCCCCC(=S)NCCCC[C@H](NC(=O)OCc1ccccc1)C(=O)Nc1ccccc1 | 43.3% (inactive)
CC(=O)O[C@H]1[C@H](CC#CC#CC[C@@H]2C[C@]3(C)[C@H]4CC=C5[C@H]6[C@@H](C)[C@H](C)CC[C@]6(C(=O)NCCN(CCN)CCN)CC[C@@]5(C)[C@]4(C)CC[C@H]3C(C)(C)[C@H]2OC(C)=O)C[C@]2(C)[C@H]3CC=C4[C@H]5[C@@H](C)[C@H](C)CC[C@]5(C(=O)NCCN(CCN)CCN)CC[C@@]4(C)[C@]3(C)CC[C@H]2C1(C)C | 87.1% (inactive)
Cc1ccc(O)c(Cc2ccccc2)c1 | 99.6% (inactive)
COc1ccc(OC)c(Nc2nc(-c3c(C)nc4sccn34)cs2)c1 | 102% (inactive)
COc1cc2nccc(Oc3ccc(NC(=O)C4(C(=O)Nc5ccc(F)cc5)CC4)cc3)c2cc1O | 65.8% (inactive)
Cc1cc(C)c2c(n1)sc1c(Nc3ccc(O)cc3)ncnc12 | 19.3% (inactive)

Here is another compound to look at.
Given the entry COc1ccc(C(=O)/C=C/c2cn(-c3ccccc3)nc2-c2cccc(Nc3ccnc4cc(Cl)ccc34)c2)cc1 , what growth was observed with SF-268 CNS?
89.3% (inactive)

---

Test system: SNB-75 CNS
Test: NCI-60 one-dose screen, 48 h
Conditions: 10 µM unless noted
Compounds without any hit were thinned out: in the full panel of roughly 83,000, 20% have a hit. The source made the active and inactive calls. The calls were made as follows: active = growth percent below 10; inactive = the rest.
Assign a class; possible classes are yes (1) for active, no (0) for inactive

Please share the test call associated with O=[N+]([O-])c1cccc([I+]c2ccccc2)c1 .
no (0)

Can you look up the reported call for COc1ccc(-c2cnc3ccnn3c2-c2cc(OC)c(OC)c(OC)c2)cc1 for me?
yes (1)

What call does the record list for COc1cccc(NC(=O)c2c(-c3ccccc3)c(-c3ccccc3)n[nH]c2=O)c1 ?
no (0)

Please let me know the test result on file for COc1ccc2c(c1)CCCC21C(=O)Nc2c(Cl)cccc21 (centres undefined) .
no (0)

What classification did [Ag].[Ag].[NH-]S(=O)(=O)c1ccc(N=Nc2cc(N=Nc3ccc(S([NH-])(=O)=O)cc3)c3c(NC(=O)C(Cl)Cl)cccc3c2OC(=O)C(Cl)Cl)cc1.[c-]1nccs1.[c-]1nccs1 end up with in this test?
no (0)

Hi, sorry to bother you, what did the test record for Cc1ccc(/C=C/C(=N/N=C(N)N)c2ccccc2)cc1 ?
yes (1)

Test call, this compound: COc1c(-c2cc(-c3ccc(C)o3)[nH]c(=O)n2)c(O)cc2occc12
no (0)

Query: recorded result category for O=C(CN1CCN(c2ccccc2)CC1)N1CCN(c2nnc(-c3ccc(Cl)cc3)c(-c3ccc(Cl)cc3)n2)CC1 in this test
no (0)

Test call, this compound: COc1cc(C2C=C(C)N=C3SC=NN32)cc(OC)c1OC (centres undefined)
no (0)

What did the test return for COc1ccc(OC)c(Nc2nc(-c3c(C)nc4sccn34)cs2)c1 ?
no (0)

Per the records of this test, what outcome belongs to Cc1ccc(N=CNN=C(N)N)cc1 ?
no (0)

Dear colleague, could you share the recorded outcome for CCOC(=O)c1ccc(N(CCC(=O)O)C(C)=O)cc1 when you have a moment?
no (0)

I would be grateful if you could indicate the recorded call for COc1cc2c(cc1OCCCOc1cc3c(cc1OC)C(=O)N1CCC[C@H]1C=N3)C=CC(C)(C)O2 .
no (0)

Recorded test call requested for CCCCCNCCCCCNc1cc(OC)cc2cccnc12
no (0)

Test call for this compound, please: C#CC[C@@H]1C[C@]2(C)[C@H]3CC[C@@H]4[C@H]5C(C(=C)C)CC[C@]5(C(=O)NCCCCCCCCN)CC[C@@]4(C)[C@]3(C)CC[C@H]2C(C)(C)[C@H]1OC(C)=O (some centres undefined)
no (0)

Hi, do you know how COc1cc(-c2csc(NC(=O)Nc3cccc(C(F)(F)F)c3)n2)cc(OC)c1OC came out in this test?
no (0)

---

Below: a set of entries, each annotated with reported growth.
Tested on: DU-145 prostate
Experiment: NCI-60 one-dose screen, 48 h (100 = growth as untreated, 0 = no growth, -100 = all killed)
Conditions: 10 µM unless noted
The panel holds about 83,000 compounds, 20% with a hit somewhere; the sample as a whole holds those more often.
Give the value, in units of %, as a plain number.

Compound | System Tested | Reading Unit | growth
O=C(C(Br)C(Br)c1ccccc1)C(Br)C(Br)c1ccccc1 (stereo unspecified) | DU-145 prostate | % | -26.4
CC(COC(=O)c1ccccc1)N1CC2CCC(C1)O2 (stereo unspecified) | DU-145 prostate | % | 107
COc1ccc(C(=O)c2c(N)nc3n2CCCC3)cc1OC | DU-145 prostate | % | 107
CC1=NOCC(=O)N1 | DU-145 prostate | % | 111
CC(C)N1CCN(c2ccncc2S(=O)(=O)N2CCN(C)CC2)CC1 | DU-145 prostate | % | 110
CC1(C)CC[C@]2(C(=O)N3CCNCC3)CC[C@]3(C)C(=CC[C@@H]4[C@@]5(C)CCC(=O)C(C)(C)[C@@H]5CC[C@]43C)[C@@H]2C1 | DU-145 prostate | % | 109

For c1ccc(C(CC2=NCCCN2)c2ccccc2)cc1 , what is its reported growth?
102

For the compound Cc1cc(-c2nnc(/C=C/c3ccc4c(c3)OCO4)o2)n[nH]1 , what growth is on record?
83.4

Quick one: growth for N#Cc1c(N)n(C2OC(CO)C(O)C2O)c2ncnc(N)c12 (stereo unspecified) ?
-9.06

Quick check: growth of COc1ccc2c(c1)CCCC21C(=O)Nc2c(Cl)cccc21 (stereo unspecified) ?
93

If you can, please state the reported growth value of CCCCCCCCCCCCCC[N+](C)(C)CCCCCCCCCCCCCC .
97.9

---

System: NCI-H460 lung
Assay: NCI-60 one-dose screen, 48 h
Settings: 10 µM unless noted
About 83,000 compounds went through this panel and 20% of them were active in at least one assay; those are over-represented in the sample as a whole. Activity calls are given as the source filed them. The calls were made as follows: active = growth percent below 10; inactive = the rest.
// classify into active, inactive

Molecule | Assigned Category
O=C(/C=C/c1cn(-c2ccccc2)nc1-c1cccc(Nc2ccnc3cc(Cl)ccc23)c1)c1ccc2c(c1)OCO2 | inactive
C[C@@H]1C[C@H](N)C[C@H](c2ccncc2NC(=O)c2ccc(F)c(-c3c(F)cccc3F)n2)C1 | inactive
COc1cccc2nc(Nc3cccc(NC(=O)c4ccc(N5CCN(C)CC5)c(C(F)(F)F)c4)c3)ccc12 | active
CC(=O)OC1Oc2cc(C)c(C)cc2-c2oc(=O)c(-c3ccc(F)cc3)cc21 (stereo not given) | inactive

Please look at the following molecule next.
Hey, what did the test say about COc1c(-c2cc(-c3ccc(C)o3)[nH]c(=O)n2)c(O)cc2occc12 ?
inactive
